Tested on: Escherichia coli
assay.notes: Antibacterial activity against Escherichia coli at 80 ug/ml after 24 hrs by Oxford cup assay
Format: functional
condition.summary: read-out: IZ
quantity.measured: zone of inhibition at 80 µg/mL (mm)
Number in mm, nothing else.

Before answering, review these 3 worked examples.
> print(dat)
                                smiles.data               quantity.measured  recorded.value
1  C=C[C@]1(C)C[C@@H](OC(=O)CSC(C)(C)CNC(=O)c2cccc(Cl)c2)[C@]2(C)[C@H](C)CC[C@]3(CCC(=O)[C@H]32)[C@@H](C)[C@@H]1O  zone of inhibition at 80 µg/mL            11.9
2  C=C[C@]1(C)C[C@@H](OC(=O)CSC(C)(C)CNC(=O)c2ccc(N)cc2)[C@]2(C)[C@H](C)CC[C@]3(CCC(=O)[C@H]32)[C@@H](C)[C@@H]1O  zone of inhibition at 80 µg/mL            18.1
3  C=C[C@]1(C)C[C@@H](OC(=O)CSC(C)(C)CNC(=O)c2cccc(N)c2)[C@]2(C)[C@H](C)CC[C@]3(CCC(=O)[C@H]32)[C@@H](C)[C@@H]1O  zone of inhibition at 80 µg/mL            9.94

Would you kindly share the measured zone of inhibition at 80 µg/mL for "C=C[C@]1(C)C[C@@H](OC(=O)CSC(C)(C)CNC(=O)c2cccc(C)c2)[C@]2(C)[C@H](C)CC[C@]3(CCC(=O)[C@H]32)[C@@H](C)[C@@H]1O" ?
11.3

Entry to check: "C=C[C@]1(C)C[C@@H](OC(=O)CSC(C)(C)CNC(=O)OCc2ccccc2)[C@]2(C)[C@H](C)CC[C@]3(CCC(=O)[C@H]32)[C@@H](C)[C@@H]1O"
11.7

Entry to check: "C=C[C@]1(C)C[C@@H](OC(=O)CSC(C)(C)CNC(=O)c2ccccc2OC)[C@]2(C)[C@H](C)CC[C@]3(CCC(=O)[C@H]32)[C@@H](C)[C@@H]1O"
12.4

Entry to check: "C=C[C@]1(C)C[C@@H](OC(=O)CSC(C)(C)CNC(=O)c2ccc(OC)cc2)[C@]2(C)[C@H](C)CC[C@]3(CCC(=O)[C@H]32)[C@@H](C)[C@@H]1O"
15.7

Entry to check: "C=C[C@]1(C)C[C@@H](OC(=O)CSC(C)(C)CNC(=O)c2cccc(OC)c2)[C@]2(C)[C@H](C)CC[C@]3(CCC(=O)[C@H]32)[C@@H](C)[C@@H]1O"
12.2

Entry to check: "C=C[C@]1(C)C[C@@H](OC(=O)CSC(C)(C)CNC(=O)c2ccc(C)cc2)[C@]2(C)[C@H](C)CC[C@]3(CCC(=O)[C@H]32)[C@@H](C)[C@@H]1O"
9.8

Entry to check: "C=C[C@]1(C)C[C@@H](OC(=O)CSC(C)(C)CNC(=O)c2ccc(Cl)cc2)[C@]2(C)[C@H](C)CC[C@]3(CCC(=O)[C@H]32)[C@@H](C)[C@@H]1O"
11.8

Entry to check: "C=C[C@]1(C)C[C@@H](OC(=O)CSC(C)(C)CNC(=O)OCC(C)C)[C@]2(C)[C@H](C)CC[C@]3(CCC(=O)[C@H]32)[C@@H](C)[C@@H]1O"
9.91

Entry to check: "C=C[C@]1(C)C[C@@H](OC(=O)CSC(C)(C)CNC(=O)[C@H](N)c2ccccc2)[C@]2(C)[C@H](C)CC[C@]3(CCC(=O)[C@H]32)[C@@H](C)[C@@H]1O"
9.2

Entry to check: "C=C[C@]1(C)C[C@@H](OC(=O)CSC(C)(C)CNC(=O)[C@@H](N)c2ccccc2)[C@]2(C)[C@H](C)CC[C@]3(CCC(=O)[C@H]32)[C@@H](C)[C@@H]1O"
10

Entry to check: "C=C[C@]1(C)C[C@@H](OC(=O)CSCCN(CC)CC)[C@]2(C)[C@H](C)CC[C@]3(CCC(=O)[C@H]32)[C@@H](C)[C@@H]1O"
15.2

###

System: Staphylococcus aureus
assay.notes: Antibacterial activity against methicillin-resistant Staphylococcus aureus at 80 ug/ml after 24 hrs by Oxford cup assay
Type: functional
condition.summary: read-out: IZ
Classify as follows. Reported zone of inhibition at 80 µg/mL greater than or equal to 10 mm: MET. Reported zone of inhibition at 80 µg/mL below: NOT MET.

> print(dat)
                                smiles.data  label.class
1  C=C[C@]1(C)C[C@@H](OC(=O)CSC(C)(C)CNC(=O)c2cccc(C)c2)[C@]2(C)[C@H](C)CC[C@]3(CCC(=O)[C@H]32)[C@@H](C)[C@@H]1O          MET
2  C=C[C@]1(C)C[C@@H](OC(=O)CSC(C)(C)CNC(=O)c2ccccc2OC)[C@]2(C)[C@H](C)CC[C@]3(CCC(=O)[C@H]32)[C@@H](C)[C@@H]1O      NOT MET
3  C=C[C@]1(C)C[C@@H](OC(=O)CSC(C)(C)CNC(=O)c2cccc(N)c2)[C@]2(C)[C@H](C)CC[C@]3(CCC(=O)[C@H]32)[C@@H](C)[C@@H]1O      NOT MET
4  C=C[C@]1(C)C[C@@H](OC(=O)CSC(C)(C)CNC(=O)c2ccccc2Cl)[C@]2(C)[C@H](C)CC[C@]3(CCC(=O)[C@H]32)[C@@H](C)[C@@H]1O          MET
5  C=C[C@]1(C)C[C@@H](OC(=O)CSC(C)(C)CNC(=O)c2ccc(OC)cc2)[C@]2(C)[C@H](C)CC[C@]3(CCC(=O)[C@H]32)[C@@H](C)[C@@H]1O          MET

Continue with the compound presented below.
Exam item: decide whether the reported zone of inhibition at 80 µg/mL for "C=C[C@]1(C)C[C@@H](OC(=O)CSC(C)(C)CNC(=O)OCC(C)C)[C@]2(C)[C@H](C)CC[C@]3(CCC(=O)[C@H]32)[C@@H](C)[C@@H]1O" is at least 10 mm.
NOT MET

###

System: Escherichia coli
assay.notes: Antibacterial activity against Escherichia coli after 48 hrs by agar dilution method
Type: functional
In this section we review reported MIC values for a set of molecules.
Number in µg/mL, nothing else.

Before answering, review these 3 worked examples.
molecule	quantity.measured	readout.unit	recorded.value
C=C[C@]1(C)C[C@@H](OC(=O)CSC(C)(C)CNC(=O)c2cccc(OC)c2)[C@]2(C)[C@H](C)CC[C@]3(CCC(=O)[C@H]32)[C@@H](C)[C@@H]1O	MIC	µg/mL	8
C=C[C@]1(C)C[C@@H](OC(=O)CSC(C)(C)CNC(=O)c2cc3ccccc3[nH]2)[C@]2(C)[C@H](C)CC[C@]3(CCC(=O)[C@H]32)[C@@H](C)[C@@H]1O	MIC	µg/mL	16
C=C[C@]1(C)C[C@@H](OC(=O)CSC(C)(C)CNC(=O)OCC(C)C)[C@]2(C)[C@H](C)CC[C@]3(CCC(=O)[C@H]32)[C@@H](C)[C@@H]1O	MIC	µg/mL	16

Would you kindly share the measured MIC for "C=C[C@]1(C)C[C@@H](OC(=O)CSC(C)(C)CNC(=O)[C@@H](N)c2ccccc2)[C@]2(C)[C@H](C)CC[C@]3(CCC(=O)[C@H]32)[C@@H](C)[C@@H]1O" ?
4

Entry to check: "C=C[C@]1(C)C[C@@H](OC(=O)CSC(C)(C)CNC(=O)c2cccc(N)c2)[C@]2(C)[C@H](C)CC[C@]3(CCC(=O)[C@H]32)[C@@H](C)[C@@H]1O"
8

###

In this section we review reported zone of inhibition at 160 µg/mL values for a set of compounds.
System: Escherichia coli
assay.notes: Antibacterial activity against Escherichia coli at 160 ug/ml after 24 hrs by Oxford cup assay
Assay type: functional
condition.summary: read-out: IZ
Number in mm, nothing else.

Before answering, review these 4 worked examples.
> print(dat)
                                smiles.data                quantity.measured  recorded.value
1  C=C[C@]1(C)C[C@@H](OC(=O)CSC(C)(C)CNC(=O)c2cccc(OC)c2)[C@]2(C)[C@H](C)CC[C@]3(CCC(=O)[C@H]32)[C@@H](C)[C@@H]1O  zone of inhibition at 160 µg/mL            13.3
2  C=C[C@]1(C)C[C@@H](OC(=O)CSC(C)(C)CNC(=O)c2ccc(N)cc2)[C@]2(C)[C@H](C)CC[C@]3(CCC(=O)[C@H]32)[C@@H](C)[C@@H]1O  zone of inhibition at 160 µg/mL            17.8
3  C=C[C@]1(C)C[C@@H](OC(=O)CSC(C)(C)CNC(=O)c2ccc(OC)cc2)[C@]2(C)[C@H](C)CC[C@]3(CCC(=O)[C@H]32)[C@@H](C)[C@@H]1O  zone of inhibition at 160 µg/mL            17.1
4  C=C[C@]1(C)C[C@@H](OC(=O)CSC(C)(C)CNC(=O)OCc2ccccc2)[C@]2(C)[C@H](C)CC[C@]3(CCC(=O)[C@H]32)[C@@H](C)[C@@H]1O  zone of inhibition at 160 µg/mL            15.3

Would you kindly look at the next entry?
Would you kindly share the measured zone of inhibition at 160 µg/mL for "C=C[C@]1(C)C[C@@H](OC(=O)CSC(C)(C)CNC(=O)[C@H](N)c2ccccc2)[C@]2(C)[C@H](C)CC[C@]3(CCC(=O)[C@H]32)[C@@H](C)[C@@H]1O" ?
11.3
